For each of the compounds below, state its growth inhibition.
Assay explanation: Restrictive medium S. cerevisiae growth inhibition, OD615, pilot screen of yeast lifespan reduction project, restrictive growth control (AID 706);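 further: modified DeaD lifespan yeast strain shifted to restrictive glucose medium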
Condition: OD615, 48 h, at 10 µM, stronger effect = higher value
Report as a plain number; the unit % is understood.

Can you look up the measured growth inhibition of `CCOC(=O)NCc1ccc2[nH]c(C)cc2c1` for me?
-9.38

Try this compound next: `Cc1cc(NC(=O)CSc2nnc(Cc3cccn3C)n2CCc2ccccc2)no1`
14.2

Try this compound next: O=C(NC1CCCC1)C(c1ccc(Cl)cc1)N1CCOCC1 (stereo not drawn)
-6.79

Try this compound next: `COc1ccc(N2CCCCn3c2nc2c3c(=O)[nH]c(=O)n2C)cc1`
-15.6

Try this compound next: `Cn1c(=O)c2c(nc(SCc3cc4c(cc3Cl)OCO4)n2C)n(C)c1=O`
-0.11

Try this compound next: `O=C(NCCCN1CCCC1=O)c1ccccc1NS(=O)(=O)c1ccc(F)cc1`
-22

Try this compound next: `CCCCC(=O)Nc1nc2c(OC)ccc(OC)c2s1`
1.46

Try this compound next: `Cn1c(C(=O)NCCN2CCN(Cc3ccccc3)CC2)cc2c(=O)n(C)c3ccccc3c21`
5.33

Try this compound next: `CCN1CCN(CCNC(=O)C2CCN(Cc3nc(-c4ccc(Cl)cc4)oc3C)CC2)CC1`
-7.59

Try this compound next: `O=C(CCC(=O)OCCCC(F)(F)C(F)(F)F)Nc1ccccc1`
3.78

Try this compound next: `Cn1cnnc1SCC(=O)Nc1ccccc1`
-16.3

Try this compound next: CC(Nc1ncnc2nc[nH]c12)c1ccccc1 (stereo not drawn)
10.5

Try this compound next: COc1ccc(C2C(C(=O)Nc3ccccn3)=C(C)Nc3ncnn32)c(OC)c1 (stereo not drawn)
-6.24

Try this compound next: O=C(C1CCC(=O)N1Cc1cccnc1)N1CCN(c2ccc(F)cc2)CC1 (stereo not drawn)
-9.05

Try this compound next: CCOC(=O)C1C(=O)CC(C)(O)C(C(=O)OCC)C1c1ccco1 (stereo not drawn)
-5.69

Try this compound next: `O=C(Nc1ccc(S(=O)(=O)N2CCCCCC2)cc1)c1ccc(Br)o1`
0.21

Try this compound next: O=C1Nc2cc(Cl)cnc2N2CCCC12 (stereo not drawn)
8.33

Try this compound next: `Cc1cc2nsnc2c(S(=O)(=O)NCC(=O)O)c1C`
-1.79

Try this compound next: `CCN(CCNS(=O)(=O)c1ccc2c(c1)oc(=O)n2C)c1ccccc1`
-5.92

Try this compound next: O=C(c1ccc(NC2=NC3CS(=O)(=O)CC3S2)cc1)N1CCN(C(=O)c2ccco2)CC1 (stereo not drawn)
-8.33

Try this compound next: `Cc1sc2nc3ccc(N4CCCC4)nn3c(=O)c2c1C`
18.9

Try this compound next: `CC1(C)Cc2c(C#N)c(NCCCO)nc(-c3ccccc3)c2CO1`
-20.9

Try this compound next: `O=C(NCc1ccc2c(c1)OCO2)c1nnc(Cc2ccc(Cl)cc2)o1`
4.12

* * *

Assay explanation: growth suppression of PTEN-deleted HCT116, pilot screen, cell-based, HCT116 clonal line, CellTiter-Glo (AID 824);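 further: 0% = 20 µM Hyamine control and 100% = vehicle cell control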
Condition: 60 h, at 10 µM, stronger effect = lower value
Inconclusive results are not listed.
Value type: viability (%)
Report as a plain number; the unit % is understood.

Can you look up the measured viability of `Cc1cccc(NC(=O)C2CCN(S(=O)(=O)c3cccc4cccnc34)CC2)c1` for me?
81.8

Try this molecule next: COc1ccc2c(c1OC)C(=O)OC2Nc1ccccn1 (stereo unspecified)
99.7

Try this molecule next: COC(=O)C1=C(C)n2cnnc2NC1c1ccc(Cl)cc1 (stereo unspecified)
97.2

Try this molecule next: Cc1ccc(NC(=O)C2C3C=CC4(CN(Cc5cccnc5)C(=O)C24)O3)cc1 (stereo unspecified)
97.3

Try this molecule next: CC(=O)c1cccc(NC(=O)C2CCCN(S(=O)(=O)c3cccc4cccnc34)C2)c1 (stereo unspecified)
73.7

Try this molecule next: `Nc1ccc(-c2nc3ccc(N)cc3o2)cc1`
86.8

Try this molecule next: `O=C(Nc1ccc(Br)cc1F)C1CCN(c2nnc(-n3cccc3)s2)CC1`
99.8

Try this molecule next: COC(=O)C1=C(C)N2C(=O)CSC2=NC1c1ccc2c(c1)OCO2 (stereo unspecified)
98.8

Try this molecule next: O=C(NCCCN1CCC(Cc2ccccc2)CC1)C1CC(=O)N(C2CCCC2)C1 (stereo unspecified)
83.7

Try this molecule next: `Cn1c(NC(=O)C2CC2)cc(=O)n(C)c1=O`
104

Try this molecule next: `COc1ccccc1-n1c2c(cc(C(=O)N3CCC(C)CC3)c1=O)C(=O)CC(C)(C)C2`
90.7
